# SYSTEM_NAME: pooled human IgG (human IgG1, 2, 3 and 4)
Each entry below carries its recorded Enzyme Activity Endpoint Assay: Fab′2.
QUANTITY_KIND: Enzyme Activity Endpoint Assay: Fab′2 (ng/µL)

PROTEIN: PRT-392 (protein) MVTSVWTKGVTPPTNFTYGEDVLHAPYVANQGWYDITKTFNGKDDLLCGAATAGNMLHWWFDQNKEQIENYLKKHPEKQKINFNGEQMFDVKEAIDTKDSQLDSKLFEYFKEKAFPYLSTKHLGVFPDHVIDMFINGYRLSLTNHGPTPVKRGSKDPRGGIFDAVFTRGVQSKLLTNRHDFKEKTLKEISDLIKQELTEGKALGISHTYANVRINHVINLWGADFDAEGNLEAIYVTDSDSNASIGMKKYFVGVNSNGKVAISAKEIEEDNIGAQVLGLFTLSTGQDIWNQTN
QUANTITY_KIND: Enzyme Activity Endpoint Assay: Fab′2
MEAS_VALUE: 513
--
PROTEIN: PRT-422 (protein) MTITSVWTKGVTPPTPEDFRYNNEDVLHAPYVANQGWYDITKTFDGKDNLLCGAATAGNMLHWWFDQNKEEIERYLKKHPEKQKIIFNNQELFDVKAAIDTKDSQTNSKLFNYFRDKAFPNLSARQLGVMPDLVLDMFINGYYLNLGKTQSTDVNRPYQDKDKRGGIFDAVFTRGDQTTLLTARHDLKNKGLNEISDLIKQELTEGKALALSHTYANVRINHVINLWGADFDAEGNLIAIYVTDSDANPSIGMKKYFVGVNANGKVAISAKKIEGDNIGAQVLGLFTLSTGQDIWQKLS
QUANTITY_KIND: Enzyme Activity Endpoint Assay: Fab′2
MEAS_VALUE: 494
--
PROTEIN: PRT-253 (protein) MVTSVWTKGVTPPTNFTYGEDVLHAPYVANQGWYDITKTFNGKDDLLCGAATAGNMLHWWFDQNKEQIENYLKKHPEKQKINFNGEQMFDVKEAIDTKDSQLDSKLFEYFLEKAFPNLSTKHLGVFPDHVIDMFINGYRLSLLNHGPTPVKRGSKDPRGGIFDAVFTRGDQSKLLTNRHDFKEKTLKEISDLIKQELTEGKALGISHTYANVRINHVINLWGADFDAEGNLEAIYVTDSDSNKSIGMKKYFVGVNSDGKVAISAKEIEEDNIGAQVLGLFTLSTGQDIWNQTN
QUANTITY_KIND: Enzyme Activity Endpoint Assay: Fab′2
MEAS_VALUE: 912
--
PROTEIN: PRT-534 (protein) MANQEIRYSSDSEWANKKVWVYGITPPEEGAWKYSTYYLPWKKEYGWYDCNKRNPTADGMMCWAATASNLLHWWIAQNKEYIDLYGDKYKGPDKINFNGEQMFDVKEYIDPLDKPQESDIFQCFIDKSFADLSTKHEAGYGDAGINWFIHGIIPSSPAHGPTPVKLDYPYNPAGYFKDVFPRGDGVVLLGNNGDFKELSKERFNETIKDALKNKKAIGLSIGPVNVRSSHVVTIWGAEFDENGDVSYIYMADNNDNWGVGCIRYQIVYEEGGTYTCYKTEIIPSDRPIPINRLVTLELGEEYWKQTNLEHHHHHH
QUANTITY_KIND: Enzyme Activity Endpoint Assay: Fab′2
MEAS_VALUE: 0
